# target-under-test: Hb (Homo sapiens, UniProt P68871+P69905)
# Construct: from tissue
# Sequence (P69905 2-142 limits assumed): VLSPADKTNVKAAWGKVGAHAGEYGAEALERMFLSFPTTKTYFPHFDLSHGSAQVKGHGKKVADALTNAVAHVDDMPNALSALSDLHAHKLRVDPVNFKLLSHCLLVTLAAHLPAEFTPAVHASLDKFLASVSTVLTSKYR
# Sequence (P68871 2-147 limits assumed): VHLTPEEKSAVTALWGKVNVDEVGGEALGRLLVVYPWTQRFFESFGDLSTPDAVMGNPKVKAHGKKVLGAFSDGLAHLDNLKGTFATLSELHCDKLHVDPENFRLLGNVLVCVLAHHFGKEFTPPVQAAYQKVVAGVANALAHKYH
# assay-details: Whole blood assay: oxygen equilibrium curves (Hemox Analyzer), change in O2 affinity of Hb
# Format: cell-based
# conditions-used: whole blood incubated 1 h at 37° C., equimolar ratio of hemoglobin to compound; sodium salts of 2B (Enantiomer 1), 4B, 5B used

compound	target-under-test	units-symbol	Delta-p50 (%)
O=Cc1c(O)cccc1OC[C@@H]1COCCN1C(=O)c1ccccc1CCC(=O)O [Compound 8A]	Hb (Homo sapiens, UniProt P68871+P69905)	%	55.01
O=Cc1c(O)cccc1OCC1CSCCN1C(=O)c1ccccc1CC(=O)O (stereo not shown) [Compound 6A]	Hb (Homo sapiens, UniProt P68871+P69905)	%	5.09
O=Cc1c(O)cccc1OC[C@@H]1CCCCN1C(=O)c1ccccc1CCC(=O)O [Compound 7A]	Hb (Homo sapiens, UniProt P68871+P69905)	%	77.13
O=Cc1c(O)cccc1OCC1CSCCN1C(=O)c1cccnc1CC(=O)O (single isomer, unassigned) [Compound 2B (Enantiomer 1)]	Hb (Homo sapiens, UniProt P68871+P69905)	%	10.72

----------
# assay-details: Rat PK, oral gavage
# Type: in vivo
# conditions-used: male, Sprague-Dawley, rat, whole blood, po, fasted male Sprague-Dawley rats, oral gavage 2 mg/kg and/or 10 mg/kg, sodium salt of 5B used
# Procedure: A group of fasted male Sprague-Dawley rats were dosed via oral gavage at 2 mg/kg and/or 10 mg/kg with test articles formulated in 0.5% methylcellulose suspension with 0.01% polysorbate 80 in PBS (phosphate buffered saline). […] Test article concentrations were measured by HPLC-MS-MS. Pharmacokinetic parameters were calculated using non-compartment analysis. The T1/2 was calculated via a linear regression of the terminal phase of the blood-time concentration profile. […]

molecule	half-life
O=Cc1c(O)cccc1OC[C@@H]1COCCN1C(=O)c1ccccc1CCC(=O)O [Compound 8A]	102 h
O=Cc1c(O)cccc1OC[C@@H]1CCCCN1C(=O)c1ccccc1CC(=O)O [Compound 4A]	89.2 h
O=Cc1c(O)cccc1OC[C@@H]1CSCCN1C(=O)c1ccccc1CCC(=O)O [Compound 9A]	88.7 h
O=Cc1c(O)cccc1OC[C@@H]1COCCN1C(=O)c1ccccc1 [Reference Compound B, reference compound]	29.8 h
O=Cc1c(O)cccc1OC[C@@H]1CCCCN1C(=O)c1ccccc1C(=O)O [Compound 1A]	110 h
O=Cc1c(O)cccc1OC[C@@H]1CCCCN1C(=O)c1cccnc1CC(=O)O [Compound 5B]	120 h
O=Cc1c(O)cccc1OC[C@@H]1CCCCN1C(=O)c1cccnc1C(=O)O [Compound 1B]	11.7 h
O=Cc1c(O)cccc1OC[C@@H]1CCCCN1C(=O)c1ccccc1CCC(=O)O [Compound 7A]	52 h
O=Cc1c(O)cccc1OC[C@@H]1CCCCN1C(=O)c1ccccc1 [Reference Compound A, reference compound]	25.9 h
